# System: Aureobasidium pullulans (QM 3092)
# EXPERIMENT NOTES: Screening of fungi for enzyme activity with 4-methylumbelliferone-labelled substrates
# Format: cell-based
# DETAILS: Aureobasidium pullulans (QM 3092); mineral medium; substrate 10 μM, 25° C., pH 5
ENDPOINT NAME: Enzyme activity: amount of released 4-methylumbelliferone (µmol)

| COMPOUND | VALUE UNITS | MEASURED NUMBER |
| --- | --- | --- |
| Cc1cc(=O)oc2cc(O[C@@H]3OC[C@@H](O)[C@H](O)[C@H]3O)ccc12 [substrate 9, 4-methylumbelliferyl β-D-xyloside] | µmol | 0 |
| Cc1cc(=O)oc2cc(O[C@@H]3O[C@H](CO)[C@@H](O)[C@H](O)[C@@H]3O)ccc12 [substrate 6, 4-methylumbelliferyl β-D-mannopyranoside] | µmol | 0 |
| Cc1cc(=O)oc2cc(O[C@@H]3O[C@H](CO)[C@@H](O[C@@H]4O[C@H](CO)[C@H](O)[C@H](O)[C@H]4O)[C@H](O)[C@H]3O)ccc12 [substrate 8, 4-methylumbelliferyl β-D-lactoside] | µmol | 0 |
| Cc1cc(=O)oc2cc(OC3OC(CO)C(O)C(O)C3O)ccc12 [substrate 5, 4-methylumbelliferyl α-D-mannopyranoside] | µmol | 0 |
| CC(=O)N[C@H]1[C@@H](Oc2ccc3c(C)cc(=O)oc3c2)O[C@H](CO)[C@@H](O)[C@@H]1O [substrate 2] | µmol | 0 |
| Cc1cc(=O)oc2cc(O[C@@H]3O[C@H](C)[C@H](O)[C@H](O)[C@H]3O)ccc12 [substrate 11, 4-methylumbelliferyl β-D-fucoside] | µmol | 0 |
| CC(=O)N[C@H]1[C@H](Oc2ccc3c(C)cc(=O)oc3c2)O[C@H](COS(=O)(=O)O)[C@@H](O)[C@@H]1O [substrate 1] | µmol | 0 |

* * *

# System: Schizophyllum commune (AGM 25)
# EXPERIMENT NOTES: Screening of fungi for enzyme activity with 4-methylumbelliferone-labelled substrates
# Type: cell-based
# DETAILS: mineral medium, substrate 10 μM, 25° C., pH 5
ENDPOINT NAME: Enzyme activity: amount of released 4-methylumbelliferone (µmol)

| COMPOUND | VALUE UNITS | MEASURED NUMBER |
| --- | --- | --- |
| Cc1cc(=O)oc2cc(O[C@H]3O[C@H](C)[C@H](O)[C@H](O)[C@H]3O)ccc12 [substrate 10, 4-methylumbelliferyl α-D-fucoside] | µmol | 0 |
| Cc1cc(=O)oc2cc(O[C@@H]3O[C@H](CO)[C@@H](O)[C@H](O)[C@@H]3O)ccc12 [substrate 6, 4-methylumbelliferyl β-D-mannopyranoside] | µmol | 0 |
| Cc1cc(=O)oc2cc(OC3OC(CO)C(O)C(O)C3O)ccc12 [substrate 5, 4-methylumbelliferyl α-D-mannopyranoside] | µmol | 0 |
| CC(=O)N[C@H]1[C@@H](Oc2ccc3c(C)cc(=O)oc3c2)O[C@H](CO)[C@@H](O)[C@@H]1O [substrate 2] | µmol | 0 |
| Cc1cc(=O)oc2cc(O[C@@H]3O[C@H](C)[C@H](O)[C@H](O)[C@H]3O)ccc12 [substrate 11, 4-methylumbelliferyl β-D-fucoside] | µmol | 0 |
| Cc1cc(=O)oc2cc(O[C@@H]3O[C@H](CO)[C@@H](O[C@@H]4O[C@H](CO)[C@H](O)[C@H](O)[C@H]4O)[C@H](O)[C@H]3O)ccc12 [substrate 8, 4-methylumbelliferyl β-D-lactoside] | µmol | 0 |
| Cc1cc(=O)oc2cc(O[C@@H]3OC[C@@H](O)[C@H](O)[C@H]3O)ccc12 [substrate 9, 4-methylumbelliferyl β-D-xyloside] | µmol | 0 |
| Cc1cc(=O)oc2cc(O[C@H]3O[C@H](CO)[C@@H](O)[C@H](O)[C@H]3O)ccc12 [substrate 7, 4-methylumbelliferyl α-D-glucoside] | µmol | 0 |
